# Tested on: PPARg:RXRa 30nM:10nM, anti-RXR (NR concentration 30 nM, RXRa partner concentration 10 nM)
# method.description: PBM binding z-score (relative to random genomic background probes); higher = stronger binding; sequences stand for … in GC…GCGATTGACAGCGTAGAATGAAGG
experimental.readout: PBM binding z-score
The answer should be written as a number, with no unit following it.

Item ACTTACTGGTCAACGAGGTTATAGCACGCGTATA has what recorded PBM binding z-score? 1.29

---

# System: LXRa:RXRa (NR concentration 270 nM, RXRa partner concentration 90 nM)
# method.description: PBM binding z-score (relative to random genomic background probes); higher = stronger binding; sequences stand for … in GC…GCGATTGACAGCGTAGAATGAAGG
We begin with a simple list: items and their reported PBM binding z-score.
The answer should be written as a number, with no unit following it.

Use these answered entries as a reference point.
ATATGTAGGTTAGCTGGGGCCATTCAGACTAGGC | 1.15
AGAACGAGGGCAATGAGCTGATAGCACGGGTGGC | 0.368
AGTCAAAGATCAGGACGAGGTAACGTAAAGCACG | -0.519

Item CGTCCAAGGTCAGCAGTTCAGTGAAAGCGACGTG has what recorded PBM binding z-score? 3.5

Now the sequence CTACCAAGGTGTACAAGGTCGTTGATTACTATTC 0.766

Now the sequence GCGACTGGCGCATCAGCAGGTTACCATAACTTAA -0.781

Now the sequence ATATGTAAGTTAAGGGTCATTCAGGTTGGTTCGC 4.64

Now the sequence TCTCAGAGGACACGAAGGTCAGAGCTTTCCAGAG 1.27

Now the sequence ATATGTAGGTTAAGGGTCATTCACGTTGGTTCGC 4.91

Now the sequence TCATATAGGAAAAGGTGAAAGTCGAACGATATGA 1.15

Source of measurements: the supplement of paper PMC6555819
